tested on: Hepatitis B virus; experiment: Selectivity ratio of CC50 for human HepG2(2.2.15) cells to IC50 for Hepatitis B virus infected in human HepG2(2.2.15) cells assessed as inhibition of viral replication; assay type: cell-based; conditions: read-out: Ratio CC50/IC50
Recorded measurements of selectivity ratio, one per entry
// return a plain number; no unit text

CC(=O)[C@]1(O)CC[C@@]2(O)[C@]1(C)[C@H](OC(=O)/C=C(\C)C(C)C)C[C@@H]1[C@@]3(C)CC[C@H](OC(=O)COc4ccccc4)CC3=CC[C@]12O    7.8
CC(=O)[C@]1(O)CC[C@@]2(O)[C@]1(C)[C@H](OC(=O)/C=C(\C)C(C)C)C[C@@H]1[C@@]3(C)CC[C@H](O)C[C@@]34O[C@H]4C[C@]12O    1.2

Now examine the next entry.
Task: Query (compound): CC(=O)[C@]1(O)CC[C@@]2(O)[C@]1(C)[C@H](OC(=O)/C=C(\C)C(C)C)C[C@@H]1[C@@]3(C)CC[C@H](OC(=O)CN(C)C)CC3=CC[C@]12O ; field requested: selectivity ratio
Output: 3.6
